Reference for the values: PubChem BioAssay (NCI)

# Tested on: RPMI-8226 leukemia
# PROTOCOL: NCI-60 one-dose screen, 48 h (100 = growth as untreated, 0 = no growth, -100 = all killed)
# DETAILS: 10 µM unless noted
Compounds without any hit were thinned out: in the full panel of roughly 83,000, 20% have a hit.
With a cut-off of 50%, any growth strictly below it is called satisfied; any growth meeting it or above is called not satisfied.

### Prompt API: query returns whether the molecule falls strictly under 50% in growth. Query: "Cc1nc2c(nnn2-c2ccccc2)c2nc(-c3ccc(Cl)cc3)oc(=O)c12"
### Response not satisfied

### Prompt API: query returns whether the molecule falls strictly under 50% in growth. Query: "CC(C)(C)c1cc(C[P+](c2ccc(Cl)cc2)(c2ccc(Cl)cc2)c2ccc(Cl)cc2)cc(C(C)(C)C)c1O"
### Response satisfied

### Prompt API: query returns whether the molecule falls strictly under 50% in growth. Query: "O=c1oc2ccc3ccccc3c2cc1-c1ccnc2[nH]c(=S)[nH]c(=O)c12"
### Response not satisfied

### Prompt API: query returns whether the molecule falls strictly under 50% in growth. Query: "COC1=C(OC)C(=O)c2ccccc2C1=O"
### Response not satisfied

### Prompt API: query returns whether the molecule falls strictly under 50% in growth. Query: "O=C(NC(=S)NNC(=S)NNc1ccccc1)c1ccccc1"
### Response satisfied

### Prompt API: query returns whether the molecule falls strictly under 50% in growth. Query: "CCOC(=O)c1c(C)oc2ncnc(Nc3ccc(NC(=O)Nc4cccc(Cl)c4)cc3)c12"
### Response satisfied

### Prompt API: query returns whether the molecule falls strictly under 50% in growth. Query: "Oc1ccccc1/C=N/N=C/c1c(O)ccc2ccccc12"
### Response not satisfied

### Prompt API: query returns whether the molecule falls strictly under 50% in growth. Query: "O=C1C=C(OCC=C(C(F)(F)F)C(F)(F)F)c2ccccc2C1=O"
### Response satisfied

### Prompt API: query returns whether the molecule falls strictly under 50% in growth. Query: "CC(=O)Nc1ccc(CC#N)cc1Br"
### Response not satisfied

### Prompt API: query returns whether the molecule falls strictly under 50% in growth. Query: "COc1ccc2sc(-n3nc4nc5n(c(=O)c4c3N)-c3ccccc3Sc3ccccc3-5)nc2c1"
### Response satisfied

### Prompt API: query returns whether the molecule falls strictly under 50% in growth. Query: "O=C(CBr)OCc1ccc([N+](=O)[O-])o1"
### Response not satisfied

### Prompt API: query returns whether the molecule falls strictly under 50% in growth. Query: CCCCCCC(C)N(CC(C)(C)O)C(=O)c1ccc([N+](=O)[O-])cc1 (stereo not given)
### Response not satisfied

### Prompt API: query returns whether the molecule falls strictly under 50% in growth. Query: "CC(=O)Nc1nc(C)c(C(=O)N/N=C/N2CCCCC2)s1"
### Response not satisfied

### Prompt API: query returns whether the molecule falls strictly under 50% in growth. Query: "CNc1ccc(Nc2ccc(S(=O)(=O)O)cc2)c2c1C(=O)c1ccccc1C2=O"
### Response not satisfied

### Prompt API: query returns whether the molecule falls strictly under 50% in growth. Query: "C=CN(C)S(C)(=O)=O"
### Response satisfied

### Prompt API: query returns whether the molecule falls strictly under 50% in growth. Query: CCC(C)C1NC(=O)C(CC(C)C)NC(=O)C(C)NC(=O)C(C(C)C)NC(=O)C(CCCCN)NC(=O)C(CC(C)C)NC(=O)C(C(C)C)NC(=O)[C@H](C)NC(=O)C(C(C)CC)NC(=O)C(CCCN=C(N)N)NC(=O)C(CCCCN)NC(=O)C(CCCN=C(N)N)NC(=O)C(CCCCN)NC(=O)C([C@H](C)CC)NC(=O)C(CCCCN)NC1=O (stereo not given in full)
### Response satisfied

### Prompt API: query returns whether the molecule falls strictly under 50% in growth. Query: "CC(=O)Nc1ccc(S(=O)(=O)Cl)cc1"
### Response not satisfied

### Prompt API: query returns whether the molecule falls strictly under 50% in growth. Query: "CCCCCCCCCCCCCCCCCC(=O)Nc1ccc(O)cc1"
### Response not satisfied

### Prompt API: query returns whether the molecule falls strictly under 50% in growth. Query: "O=C(/C=C1\C(=O)N(Cc2ccc([N+](=O)[O-])cc2)c2ccccc21)c1ccc(OCCN2CCCCC2)cc1"
### Response satisfied

### Prompt API: query returns whether the molecule falls strictly under 50% in growth. Query: "COc1ccc2cn3c4ccc(O)cc4[nH]c(=O)c3c2c1"
### Response satisfied
